Target: Receptor tyrosine-protein kinase erbB-2 (Homo sapiens) (UniProt P04626);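 note: each value is the mean percent inhibition of ERBB2 over replicate measurements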
Sequence (P04626 whole entry): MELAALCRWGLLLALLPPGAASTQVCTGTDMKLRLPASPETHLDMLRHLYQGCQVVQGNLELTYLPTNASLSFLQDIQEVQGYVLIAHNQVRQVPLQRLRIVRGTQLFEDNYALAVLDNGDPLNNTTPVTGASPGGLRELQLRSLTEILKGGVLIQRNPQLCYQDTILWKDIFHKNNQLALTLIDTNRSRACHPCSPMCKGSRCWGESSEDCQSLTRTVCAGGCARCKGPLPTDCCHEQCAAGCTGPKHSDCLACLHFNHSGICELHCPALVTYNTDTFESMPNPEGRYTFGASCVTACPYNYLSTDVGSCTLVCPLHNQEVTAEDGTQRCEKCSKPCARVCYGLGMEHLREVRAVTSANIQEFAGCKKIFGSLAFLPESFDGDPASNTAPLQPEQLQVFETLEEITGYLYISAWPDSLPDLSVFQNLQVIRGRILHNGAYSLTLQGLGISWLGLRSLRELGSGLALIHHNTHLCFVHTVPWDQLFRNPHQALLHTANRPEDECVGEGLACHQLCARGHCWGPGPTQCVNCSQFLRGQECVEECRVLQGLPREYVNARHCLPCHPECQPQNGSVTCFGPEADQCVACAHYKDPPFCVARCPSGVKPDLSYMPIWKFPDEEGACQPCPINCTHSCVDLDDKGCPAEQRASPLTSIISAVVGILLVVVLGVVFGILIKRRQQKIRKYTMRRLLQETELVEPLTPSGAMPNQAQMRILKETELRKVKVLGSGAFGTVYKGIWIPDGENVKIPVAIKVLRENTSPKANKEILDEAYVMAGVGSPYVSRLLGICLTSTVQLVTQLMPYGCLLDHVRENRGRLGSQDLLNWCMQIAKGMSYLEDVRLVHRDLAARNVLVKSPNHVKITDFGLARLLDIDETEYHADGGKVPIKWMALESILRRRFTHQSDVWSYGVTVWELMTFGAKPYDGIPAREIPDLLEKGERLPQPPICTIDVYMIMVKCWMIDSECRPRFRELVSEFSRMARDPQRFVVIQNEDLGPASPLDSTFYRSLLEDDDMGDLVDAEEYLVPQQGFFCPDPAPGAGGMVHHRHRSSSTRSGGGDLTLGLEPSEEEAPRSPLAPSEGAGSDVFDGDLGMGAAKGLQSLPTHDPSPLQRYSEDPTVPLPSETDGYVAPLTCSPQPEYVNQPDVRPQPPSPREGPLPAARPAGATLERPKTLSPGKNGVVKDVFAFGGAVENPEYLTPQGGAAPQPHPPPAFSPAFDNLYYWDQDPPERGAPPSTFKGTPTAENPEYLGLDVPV
Details: at 0.1 µM
Recorded inhibition values for a group of molecules are listed next.
TEST READOUT: inhibition (%)

molecule=Fc1ccc(-c2nc3n(c2-c2ccncc2)CCS3)cc1 experimental_target="Receptor tyrosine-protein kinase erbB-2 (Homo sapiens) (UniProt P04626)" test_readout=inhibition obs_value=4.16
molecule=O=C1Nc2ccccc2/C1=C/Nc1ccc(-n2cncn2)cc1 experimental_target="Receptor tyrosine-protein kinase erbB-2 (Homo sapiens) (UniProt P04626)" test_readout=inhibition obs_value=3.17
molecule=NS(=O)(=O)c1ccc(N/N=C2\C(=O)Nc3ccc(C(=O)NCCCn4ccnc4)cc32)cc1 experimental_target="Receptor tyrosine-protein kinase erbB-2 (Homo sapiens) (UniProt P04626)" test_readout=inhibition obs_value=4.39
molecule=Cc1ccc(C(=O)NC2CCC2)cc1-c1ccc(C(=O)NCC2CC2)cc1 experimental_target="Receptor tyrosine-protein kinase erbB-2 (Homo sapiens) (UniProt P04626)" test_readout=inhibition obs_value=3.5
molecule=Fc1ccc(-c2ncn(CCCN3CCOCC3)c2-c2ccncc2)cc1 experimental_target="Receptor tyrosine-protein kinase erbB-2 (Homo sapiens) (UniProt P04626)" test_readout=inhibition obs_value=-0.2
molecule=C[C@@H](Oc1cc(-n2cnc3ccc(OCC4CCN(C)CC4)cc32)sc1C(N)=O)c1ccccc1Cl experimental_target="Receptor tyrosine-protein kinase erbB-2 (Homo sapiens) (UniProt P04626)" test_readout=inhibition obs_value=41.4
molecule=CCC(=O)Nc1ccc(C)c(-c2ccc(C(=O)NCC3CC3)cc2)c1 experimental_target="Receptor tyrosine-protein kinase erbB-2 (Homo sapiens) (UniProt P04626)" test_readout=inhibition obs_value=2.99
molecule=CS(=O)(=O)CCNCc1ccc(-c2ccc3ncnc(Nc4ccc(OCc5ccccc5)c(Br)c4)c3c2)o1 experimental_target="Receptor tyrosine-protein kinase erbB-2 (Homo sapiens) (UniProt P04626)" test_readout=inhibition obs_value=10.8
molecule=Cc1nnc(-c2ccc(C)c(-c3ccc(C(=O)NCc4ccc(Cl)cc4)cc3)c2)o1 experimental_target="Receptor tyrosine-protein kinase erbB-2 (Homo sapiens) (UniProt P04626)" test_readout=inhibition obs_value=5.39
molecule=COc1cc(Nc2ncc(-c3ccccc3)o2)cc(OC)c1OC experimental_target="Receptor tyrosine-protein kinase erbB-2 (Homo sapiens) (UniProt P04626)" test_readout=inhibition obs_value=0.87
molecule=CN1CCN(CCCNc2nc3ccc(Oc4ccc(NC(=O)Nc5cc(C(F)(F)F)ccc5F)cc4)cc3[nH]2)CC1 experimental_target="Receptor tyrosine-protein kinase erbB-2 (Homo sapiens) (UniProt P04626)" test_readout=inhibition obs_value=-2.7
molecule=NC(=O)Cc1ccccc1Oc1nccc(-c2c(-c3ccc(F)cc3)ncn2C2CCNCC2)n1 experimental_target="Receptor tyrosine-protein kinase erbB-2 (Homo sapiens) (UniProt P04626)" test_readout=inhibition obs_value=2.21
molecule=C/C(Nc1ccc(S(N)(=O)=O)cc1)=C1/C(=O)Nc2ccccc21 experimental_target="Receptor tyrosine-protein kinase erbB-2 (Homo sapiens) (UniProt P04626)" test_readout=inhibition obs_value=-3.56
molecule=COc1ccc2cc(-c3c(-c4ccncc4)nc(-c4ccc(S(C)(=O)=O)cc4C)n3C)ccc2c1 experimental_target="Receptor tyrosine-protein kinase erbB-2 (Homo sapiens) (UniProt P04626)" test_readout=inhibition obs_value=5.67
molecule=CCc1ccc(Oc2nccc(-c3c(-c4ccc(F)cc4)ncn3C3CCNCC3)n2)cc1 experimental_target="Receptor tyrosine-protein kinase erbB-2 (Homo sapiens) (UniProt P04626)" test_readout=inhibition obs_value=1.55
molecule=C#Cc1cccc(Nc2ncnc3ccc(OCCCCNCCS(C)(=O)=O)cc23)c1 experimental_target="Receptor tyrosine-protein kinase erbB-2 (Homo sapiens) (UniProt P04626)" test_readout=inhibition obs_value=6.37
molecule=Cc1ccc(NC(=O)c2ccoc2)cc1-c1ccc(C(=O)NCC2CC2)cc1 experimental_target="Receptor tyrosine-protein kinase erbB-2 (Homo sapiens) (UniProt P04626)" test_readout=inhibition obs_value=5.47
molecule=COc1cc2ncn(-c3cc(OCc4ccccc4C(F)(F)F)c(C(C)=O)s3)c2cc1OC experimental_target="Receptor tyrosine-protein kinase erbB-2 (Homo sapiens) (UniProt P04626)" test_readout=inhibition obs_value=3.47
molecule=CCc1cccc(CC)c1/C=C/c1cncc(C(=O)NC)c1 experimental_target="Receptor tyrosine-protein kinase erbB-2 (Homo sapiens) (UniProt P04626)" test_readout=inhibition obs_value=0.13
molecule=Fc1ccc(-c2ncn(C3CCNCC3)c2-c2ccnc(Oc3ccc(Oc4ccccc4)cc3)n2)cc1 experimental_target="Receptor tyrosine-protein kinase erbB-2 (Homo sapiens) (UniProt P04626)" test_readout=inhibition obs_value=3.95
molecule=Fc1ccc(-c2c(-c3ccncc3)nc3n2CCS3)cc1 experimental_target="Receptor tyrosine-protein kinase erbB-2 (Homo sapiens) (UniProt P04626)" test_readout=inhibition obs_value=1.03

====

Molecular target: Mitogen-activated protein kinase 11 (Homo sapiens);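 note: values are mean percent inhibition of p38beta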
Settings: at 1 µM
TEST READOUT: inhibition (%)

molecule=NS(=O)(=O)c1ccc(N/N=C2\C(=O)Nc3ccc(-c4cnco4)cc32)cc1 test_readout=inhibition result_unit=% obs_value=2.84
molecule=O=C(Nc1n[nH]c2nc(-c3ccc(O)cc3)c(Br)cc12)C1CC1 test_readout=inhibition result_unit=% obs_value=38.8
molecule=COc1ccc2cc(-c3c(-c4ccncc4)nc(-c4ccc(S(C)(=O)=O)cc4C)n3C)ccc2c1 test_readout=inhibition result_unit=% obs_value=11
molecule=O=C1Nc2ccc(I)cc2C1=Cc1cc(Br)c(O)c(Br)c1 test_readout=inhibition result_unit=% obs_value=4.59
molecule=C[C@@H](Oc1cc(-n2cnc3ccc(OCC4CCN(C)CC4)cc32)sc1C(N)=O)c1ccccc1Cl test_readout=inhibition result_unit=% obs_value=5.93
molecule=COc1cccc(/C=N/Nc2ncnc3c2cnn3-c2cccc(OC)c2)c1 test_readout=inhibition result_unit=% obs_value=2.6
molecule=COc1ccc2ncn(-c3cc(O[C@H](C)c4ccccc4Cl)c(C(N)=O)s3)c2c1 test_readout=inhibition result_unit=% obs_value=4.3
molecule=C/C(Nc1ccc(S(N)(=O)=O)cc1)=C1/C(=O)Nc2ccccc21 test_readout=inhibition result_unit=% obs_value=7.87
molecule=COc1cc2ncn(-c3cc(OCc4cccs4)c(C(N)=O)s3)c2cc1OC test_readout=inhibition result_unit=% obs_value=5.4
molecule=O=C(NCC1CC1)c1ccc(-c2cccc(C(=O)NC3CC3)c2)cc1 test_readout=inhibition result_unit=% obs_value=7.97
molecule=CS(=O)(=O)CCNCc1ccc(-c2ccc3ncnc(Nc4ccc(OCc5ccccc5)c(Br)c4)c3c2)o1 test_readout=inhibition result_unit=% obs_value=5.45
molecule=CN(c1ccc(NC(=O)Nc2c(Cl)cccc2Cl)cc1)c1ccnc(Nc2cccc(CS(C)(=O)=O)c2)n1 test_readout=inhibition result_unit=% obs_value=4.6
molecule=NC(=O)c1cc(-c2ccncc2)cc(-c2ccccc2)c1N test_readout=inhibition result_unit=% obs_value=14.8
molecule=COc1cc(C)c(N(C)C(=O)CN(C)C)cc1Nc1nc(Nc2cccc(F)c2C(N)=O)c2cc[nH]c2n1 test_readout=inhibition result_unit=% obs_value=0.98
molecule=FC(F)(F)c1cccc(Nc2nccc(-c3cnn4nc(-c5ccccc5)ccc34)n2)c1 test_readout=inhibition result_unit=% obs_value=3.39
molecule=Fc1ccc(-c2ncn(CCCN3CCOCC3)c2-c2ccncc2)cc1 test_readout=inhibition result_unit=% obs_value=8.94
molecule=Cc1ccc(C(=O)NC2CCC2)cc1-c1ccc(C(=O)NCC2CC2)cc1 test_readout=inhibition result_unit=% obs_value=48.2
molecule=NS(=O)(=O)c1ccc(Nc2cc(-c3ccc(O)c(F)c3)n[nH]2)cc1 test_readout=inhibition result_unit=% obs_value=6.83
molecule=COc1cc(Nc2ncc(-c3ccccc3)o2)cc(OC)c1OC test_readout=inhibition result_unit=% obs_value=0.04
molecule=COc1ccc(-c2ccc3c(NC(=O)C4CC4)n[nH]c3n2)cc1 test_readout=inhibition result_unit=% obs_value=8.84
molecule=COc1cc(Nc2ncc3c(C)nc(-c4cccc(C(F)(F)F)c4)n3n2)cc(OC)c1OC test_readout=inhibition result_unit=% obs_value=8.89
molecule=O=C1Nc2ccccc2/C1=C/Nc1ccc(-n2cncn2)cc1 test_readout=inhibition result_unit=% obs_value=8.05
molecule=NS(=O)(=O)c1ccc(N/N=C2\C(=O)Nc3ccc(C(=O)NCCCn4ccnc4)cc32)cc1 test_readout=inhibition result_unit=% obs_value=9.47
molecule=CN(C)c1ccc2c(c1)/C(=C/Nc1ccc(S(N)(=O)=O)cc1)C(=O)N2 test_readout=inhibition result_unit=% obs_value=0.72
molecule=CN1CCN(CCCNc2nc3ccc(Oc4ccc(NC(=O)Nc5cc(C(F)(F)F)ccc5F)cc4)cc3[nH]2)CC1 test_readout=inhibition result_unit=% obs_value=22.1
molecule=O=C(Nc1n[nH]c2cc(-c3ccccc3)ccc12)C1CC1 test_readout=inhibition result_unit=% obs_value=6.34
molecule="COc1ccc2cc(-c3c(-c4ccncc4)nc(-c4ccc([S+](C)[O-])cc4C)n3C)ccc2c1 (centres undefined)" test_readout=inhibition result_unit=% obs_value=9.09
molecule=CS(=O)(=O)CCNCc1cc(-c2cc3c(Nc4ccc(OCc5cccc(F)c5)c(Cl)c4)ncnc3s2)cs1 test_readout=inhibition result_unit=% obs_value=3.36
molecule=CN(C)CCOc1ccc(-c2cc(-c3ccc4c(c3)CCC4=NO)c(-c3ccncc3)o2)cc1 test_readout=inhibition result_unit=% obs_value=1.57
molecule=NCc1ccc(-n2c(-c3nonc3N)nc3cnccc32)cc1 test_readout=inhibition result_unit=% obs_value=11
molecule=Fc1ccc(-c2nc3n(c2-c2ccncc2)CCS3)cc1 test_readout=inhibition result_unit=% obs_value=13.1
molecule="Nc1nccc(-c2c(-c3ccc(F)cc3)ncn2C2CCC(O)CC2)n1 (centres undefined)" test_readout=inhibition result_unit=% obs_value=62.2
molecule=COc1cc2ncn(-c3cc(OCc4ccccc4C(F)(F)F)c(C(C)=O)s3)c2cc1OC test_readout=inhibition result_unit=% obs_value=4.79
molecule=C[C@@H](Oc1cc(-n2cnc3ccc(OC4CCN(C)CC4)cc32)sc1C(N)=O)c1ccccc1Cl test_readout=inhibition result_unit=% obs_value=3.75
